Sourced from patent US20210388087A1

experimental-system: T1, Human CD3eg linker (human)
T1 construct: Single-chain construct; also called recombinant human CD3
T1 chain: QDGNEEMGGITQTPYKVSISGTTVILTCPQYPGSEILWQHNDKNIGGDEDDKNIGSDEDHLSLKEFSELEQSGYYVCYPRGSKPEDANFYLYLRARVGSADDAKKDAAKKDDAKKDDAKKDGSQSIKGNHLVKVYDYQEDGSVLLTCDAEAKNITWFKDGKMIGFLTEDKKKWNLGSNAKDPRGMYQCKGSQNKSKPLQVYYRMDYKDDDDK
protocol-notes: SPR; fold vs parent H183/L072
measured-attribute: fold change of affinity (fold)
Note: unit fold is implicit; provide only the numeric part.

These solved cases illustrate the format of a correct answer.
binder	fold change of affinity / fold
H183/L072 VL G91H (antibody, name in Kabat numbering, V domains shown) VH: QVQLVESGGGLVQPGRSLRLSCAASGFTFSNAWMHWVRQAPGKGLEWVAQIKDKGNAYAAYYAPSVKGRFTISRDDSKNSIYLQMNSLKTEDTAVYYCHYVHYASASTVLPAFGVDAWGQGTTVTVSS VL: DIVMTQSPLSLPVTPGEPASISCQASQELVHMNRNTYLHWYQQKPGQAPRLLIYKVSNRFPGVPDRFSGSGSGTDFTLKISRVEAEDVGVYYCAQHTSVPFTFGQGTKLEIK	0
H183/L072 VL V51Q (antibody, name in Kabat numbering, V domains shown) VH: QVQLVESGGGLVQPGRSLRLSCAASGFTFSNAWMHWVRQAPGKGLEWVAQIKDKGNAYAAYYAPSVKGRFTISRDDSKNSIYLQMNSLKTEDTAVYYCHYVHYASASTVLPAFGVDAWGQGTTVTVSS VL: DIVMTQSPLSLPVTPGEPASISCQASQELVHMNRNTYLHWYQQKPGQAPRLLIYKQSNRFPGVPDRFSGSGSGTDFTLKISRVEAEDVGVYYCAQGTSVPFTFGQGTKLEIK	0.5
H183/L072 VL E27aD (antibody, name in Kabat numbering, V domains shown) VH: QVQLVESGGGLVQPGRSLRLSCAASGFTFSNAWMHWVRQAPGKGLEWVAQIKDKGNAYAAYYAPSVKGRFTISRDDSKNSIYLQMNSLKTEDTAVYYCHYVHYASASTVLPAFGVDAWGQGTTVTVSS VL: DIVMTQSPLSLPVTPGEPASISCQASQDLVHMNRNTYLHWYQQKPGQAPRLLIYKVSNRFPGVPDRFSGSGSGTDFTLKISRVEAEDVGVYYCAQGTSVPFTFGQGTKLEIK	1.1

Query :: fold change of affinity for H183/L072 VL L27bA (antibody, name in Kabat numbering, V domains shown) VH: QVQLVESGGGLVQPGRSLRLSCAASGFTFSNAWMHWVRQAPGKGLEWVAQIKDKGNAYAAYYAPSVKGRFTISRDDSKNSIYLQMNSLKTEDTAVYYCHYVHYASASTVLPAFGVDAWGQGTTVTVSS VL: DIVMTQSPLSLPVTPGEPASISCQASQEAVHMNRNTYLHWYQQKPGQAPRLLIYKVSNRFPGVPDRFSGSGSGTDFTLKISRVEAEDVGVYYCAQGTSVPFTFGQGTKLEIK ?
Result :: 0.7

Query :: Please report the recorded fold change of affinity for H183/L072 VL T92H (antibody, name in Kabat numbering, V domains shown) VH: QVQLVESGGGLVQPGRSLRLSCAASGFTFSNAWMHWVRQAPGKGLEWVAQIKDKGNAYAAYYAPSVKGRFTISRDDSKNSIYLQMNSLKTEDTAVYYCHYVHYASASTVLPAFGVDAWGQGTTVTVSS VL: DIVMTQSPLSLPVTPGEPASISCQASQELVHMNRNTYLHWYQQKPGQAPRLLIYKVSNRFPGVPDRFSGSGSGTDFTLKISRVEAEDVGVYYCAQGHSVPFTFGQGTKLEIK .
Result :: 0.2
